Overview of reported composite z-score across a group of molecules:
- System: Wnt5a (protein binding on small-molecule microarray)
- ASSAY: Wnt5a binders on small-molecule microarray, primary screen, biophysical, 635/667 nm fluorescence (AID 1142);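 further: fluorescence read at 667 nm with signal to noise per printed feature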
- ASSAY CONTEXT: 635 nm fluorescence, higher = more signal
Lab note: record just the number, no unit beside it.

{"MOLECULE": "CCOC(=O)C[C@H]1[C@H](OC(=O)Cc2ccc3c(c2)OCO3)[C@@H](NC(=O)c2ccc(-c3ccccc3)cc2)c2cc(OCCCO)ccc2N1C(=O)c1ccc2ccccc2n1", "READOUT NAME": "composite z-score", "RECORDED NUMBER": 0.317}
{"MOLECULE": "O=C1NC(=O)C2C1C=CC(C(O)c1cccc3ccccc13)N2Nc1ccccn1 (configuration not stated)", "READOUT NAME": "composite z-score", "RECORDED NUMBER": 0.0051}
{"MOLECULE": "C=C(CCCC)C(=O)CC[C@H](OC(=O)c1cccnc1)c1ccccc1OCCO", "READOUT NAME": "composite z-score", "RECORDED NUMBER": 0.218}
{"MOLECULE": "COc1ccc(C(=O)Nc2ccc(CN3C(=O)[C@@]4(O[C@@H](CCO)[C@H]([Si](C)(C)c5ccc(OC)cc5)[C@H]4C)c4ccccc43)cc2)cc1", "READOUT NAME": "composite z-score", "RECORDED NUMBER": 0.146}
{"MOLECULE": "COc1ccc(C(O)C2C=CC3C(=O)NC(=O)C3N2Nc2ccccn2)cc1 (configuration not stated)", "READOUT NAME": "composite z-score", "RECORDED NUMBER": 0.273}
{"MOLECULE": "CC(C)(C)OC(=O)CC[C@]1(C(=O)NCC(O)CO)COC(c2ccc(OCCCO)cc2)=N1 (some centres not stated)", "READOUT NAME": "composite z-score", "RECORDED NUMBER": -0.05}

Query: Requested read-out: composite z-score. Entry: O=C1O[C@H](c2ccccc2)[C@H](c2ccccc2)N2[C@H]1[C@@H](C(=O)NC[C@H](O)c1ccccc1)[C@]1(C(=O)Nc3ccccc31)[C@H]2c1ccc(OCCO)cc1
Reply: 0.187

====

Parameter: z-score. Scope: all listed entries.
- ASSAY: A549 cell viability effects, profiling panel, calcein-AM fluorescence, 48 h, basal (AID 1162); further: test concentration not given here
- ASSAY CONTEXT: higher = more signal
No unit in the answer, only the number.

{"MOLECULE": "CC(C)C[C@@H]1NC(=O)[C@@H]2C[C@H](C(=O)NCCCCCN)[C@H](c3cccc(OCCO)c3)N2C1=O", "z-score": 0.938}
{"MOLECULE": "O=C1c2ccccc2[C@@]2(Cc3ccccc3N(CCN3CCOCC3)C2=O)[C@H](c2ccc(CO)cc2)N1Cc1ccccc1", "z-score": 0.668}
{"MOLECULE": "NC(=O)[C@@H]1[C@H]2C(=O)O[C@H](c3ccccc3)[C@H](c3ccccc3)N2[C@H](c2ccc(O)cc2)[C@@]12C(=O)Nc1ccc(C#CC3(O)CCCCCC3)cc12", "z-score": 0.735}
{"MOLECULE": "COc1ccc(C(=O)Nc2ccc(CN3C(=O)[C@@]4(O[C@@H](CCn5cc([C@H](O)c6ccccc6)nn5)[C@H]([Si](C)(C)c5ccc(OC)cc5)[C@H]4C)c4ccccc43)cc2)cc1", "z-score": -0.443}
{"MOLECULE": "C=CCNC(=O)[C@H]1[C@@H]2C(=O)O[C@@H](c3ccccc3)[C@@H](c3ccccc3)N2[C@@H](c2ccc(OCCO)cc2)[C@]12C(=O)Nc1ccc(C#CC3=CCCCC3)cc12", "z-score": -1.03}

Now look at this entry.
Query: Look at this molecule and give its reported z-score. CCCCN1CC=CC23O[C@@H]4C=CCOC(=O)[C@@H]4[C@H]2C(=O)N(CCCCCO)[C@@H]3C1=O (stereo partly specified)
Reply: -0.503

Data credit: PubChem BioAssay
